System: CCRF-CEM leukemia
Assay: NCI tumour cell line growth inhibition, 48 h
Give TGI for every item shown.

// sample CC1CN=C(c2ccc(CN3CCC(C4CCN(Cc5ccc(C6=NCC(C)N6)cc5)CC4)CC3)cc2)N1 (stereo unspecified) , its TGI was 38.2 µM

Entry `COc1ccc(/C=C\c2cc(OC)c(OC)c(OC)c2)c(NS(=O)(=O)c2ccc(Cl)cc2)c1O` ; TGI = > 100 µM

Looking up `CCN(CC)/[N+]([O-])=N/O` , I found its TGI recorded as > 100 µM

What the record says about `O=C(O)c1cccc(/C=C/c2ccccc2)c1` : TGI is > 100 µM

Memo: `COC(=O)c1ccc2c(c1)C(=O)c1c-2n(CCCN)c(=O)c2cc(OC)c(OC)cc12` , reported TGI: 10.2 µM

TGI in this record for `CC[C@@]12C=CCN3CC[C@]4(c5cc(NC(=O)COc6cc(OCC(=O)Nc7cc8c(cc7OC)N(C)[C@H]7[C@@](O)(C(=O)OC)[C@H](OC(C)=O)[C@]9(CC)C=CCN%10CC[C@]87[C@@H]%109)cc7oc(-c8ccccc8)cc(=O)c67)c(OC)cc5N(C)[C@@H]4[C@](O)(C(=O)OC)[C@H]1OC(C)=O)[C@H]32` : > 100 µM
